- Tested on: Wolbachia pipientis
- PROTOCOL_TEXT: Anti-Wolbachia Cell-Based Screen
- Format: functional
- Set-up: scale not given: in the data most compounds retested in dose-response had high values
- TEST_CONDITIONS: 5 µM
Hit rate of the full screen: of about 48,000 compounds, about 13,000 (27%) showed an effect of 50% or more. The list shows a part of the results.
VALUE_TYPE: Percent Effect (%)

>  <MOLECULE>
C/N=C1/c2cc3cc(OC)ccc3n2CCN1Cc1ccccc1.Cl

>  <VALUE_TYPE>
Percent Effect

>  <VAL>
86.74

$$$$
>  <MOLECULE>
O=C(O)c1ccccc1CN1CCCC(Cc2ccn[nH]2)C1 (configuration not stated)

>  <VALUE_TYPE>
Percent Effect

>  <VAL>
106.4

$$$$
>  <MOLECULE>
OCCCN1CCc2[nH]nc(C(c3ccccc3)c3ccccc3)c2C1

>  <VALUE_TYPE>
Percent Effect

>  <VAL>
-10.74

$$$$
>  <MOLECULE>
O=C1CCCN1CCN1CCCC(c2ccn[nH]2)C1 (configuration not stated)

>  <VALUE_TYPE>
Percent Effect

>  <VAL>
1.781

$$$$
>  <MOLECULE>
Cc1ccc(-n2ccnc2)c(C(=O)NCCOCC2CCCO2)c1 (configuration not stated)

>  <VALUE_TYPE>
Percent Effect

>  <VAL>
2.009

$$$$
>  <MOLECULE>
CCn1ccnc1C1CCCN(c2nccc3ccccc23)C1 (configuration not stated)

>  <VALUE_TYPE>
Percent Effect

>  <VAL>
-22.2

$$$$
>  <MOLECULE>
Cn1c(C(N)=O)ccc1-c1ccccc1

>  <VALUE_TYPE>
Percent Effect

>  <VAL>
3.483

$$$$
>  <MOLECULE>
CCS(=O)(=O)N1CC(c2nc(-c3ccsc3)no2)C1

>  <VALUE_TYPE>
Percent Effect

>  <VAL>
-8.132

$$$$
>  <MOLECULE>
O=C(NCc1ccco1)c1ccc(N2CCOCC2)cc1

>  <VALUE_TYPE>
Percent Effect

>  <VAL>
-7.738

$$$$
>  <MOLECULE>
O=C(NCc1ccncc1)c1nc2c(o1)CN(C(=O)c1cccnc1)C2.O=C(O)C(F)(F)F.O=C(O)C(F)(F)F

>  <VALUE_TYPE>
Percent Effect

>  <VAL>
0.8995

$$$$
>  <MOLECULE>
O=C(O)c1cccc(CN2CCCC(Cc3ccn[nH]3)C2)c1 (configuration not stated)

>  <VALUE_TYPE>
Percent Effect

>  <VAL>
127.8

$$$$
>  <MOLECULE>
CC(C)(C)OC(=O)NC1CCCN(Cc2cccc(O)c2)C1 (configuration not stated)

>  <VALUE_TYPE>
Percent Effect

>  <VAL>
-3.79

$$$$

###

- System: Wolbachia pipientis
- PROTOCOL_TEXT: Anti-Wolbachia Cell-Based Screen
- Type: functional
- Design: scale not given: in the data most compounds retested in dose-response had high values
- TEST_CONDITIONS: 5 µM
About 13,000 (27%) of roughly 48,000 compounds showed an effect of 50% or more. The list shows a part of the results.
We label by threshold. Values of Percent Effect strictly beneath 90% are rule met. Values of 90% and up are rule not met.

>  <COMPOUND>
CCc1ncncc1C(=O)N1CCN(Cc2cscn2)CC1

>  <ASSIGNED_CATEGORY>
rule not met

$$$$
>  <COMPOUND>
Clc1ccccc1CCn1ccnc1-c1cn(C2CCNCC2)nn1

>  <ASSIGNED_CATEGORY>
rule not met

$$$$
>  <COMPOUND>
CCc1nc(CN2CCCN(C(=O)c3c(C)noc3C)CC2)cs1

>  <ASSIGNED_CATEGORY>
rule met

$$$$
>  <COMPOUND>
O=C1NCCCC12CCN(S(=O)(=O)N1CCOCC1)C2 (stereo unspecified)

>  <ASSIGNED_CATEGORY>
rule met

$$$$
>  <COMPOUND>
COc1cccc(CCn2ccnc2-c2cn(C3CCNCC3)nn2)c1

>  <ASSIGNED_CATEGORY>
rule not met

$$$$
>  <COMPOUND>
Cc1ccc2[nH]c(-c3cn(C4CCNCC4)nn3)nc2c1C

>  <ASSIGNED_CATEGORY>
rule met

$$$$
>  <COMPOUND>
Cc1c(C)c(C)c2[nH]c(-c3cn(C4CCNCC4)nn3)nc2c1C

>  <ASSIGNED_CATEGORY>
rule met

$$$$
>  <COMPOUND>
CCOCC(=O)N1CCC2(CC1)COC(COCc1ccccn1)C2.O=C(O)C(F)(F)F (stereo unspecified)

>  <ASSIGNED_CATEGORY>
rule met

$$$$
>  <COMPOUND>
Cc1noc(C(C)C)c1C(=O)N1CCCN(Cc2cscn2)CC1

>  <ASSIGNED_CATEGORY>
rule met

$$$$
>  <COMPOUND>
COc1ccc(CCn2ccnc2-c2cc3n(n2)CCCNC3)cc1

>  <ASSIGNED_CATEGORY>
rule met

$$$$

###

- Test system: Wolbachia pipientis
- PROTOCOL_TEXT: Anti-Wolbachia Cell-Based Screen
- Assay type: functional
- Set-up: scale not given: in the data most compounds retested in dose-response had high values
- TEST_CONDITIONS: 5 µM
In all, about 48,000 compounds went through this assay and about 13,000 (27%) showed an effect of 50% or more. The list shows a part of the results.
Here, each record is paired with measured Percent Effect data.

>  <MOLECULE>
Cc1cc(N2CCC(O)(CN(C)C(=O)CCCN)C2)c2cnccc2n1 (stereo unspecified)

>  <TGT>
Wolbachia pipientis

>  <Percent Effect / %>
106

$$$$
>  <MOLECULE>
COc1ccc(Cc2nnc(SC)o2)cc1OC

>  <TGT>
Wolbachia pipientis

>  <Percent Effect / %>
-1.582

$$$$
>  <MOLECULE>
O=C(O)C(F)(F)F.O=C(O)C(F)(F)F.c1cncc(N2CCCC3(CCN(CCN4CCCC4)CC3)C2)c1

>  <TGT>
Wolbachia pipientis

>  <Percent Effect / %>
112

$$$$
>  <MOLECULE>
CCn1c(Cn2cncn2)nnc1C1CCN(C(=O)CCSC)CC1

>  <TGT>
Wolbachia pipientis

>  <Percent Effect / %>
0.8054

$$$$
>  <MOLECULE>
Cn1c(CN2CCCC2)nnc1C1CCCN(C(=O)N2CCOCC2)C1 (stereo unspecified)

>  <TGT>
Wolbachia pipientis

>  <Percent Effect / %>
-16.59

$$$$
>  <MOLECULE>
CCn1c(SC)nnc1C1CCN(C(=O)N2CCCC2)CC1

>  <TGT>
Wolbachia pipientis

>  <Percent Effect / %>
139.7

$$$$
>  <MOLECULE>
O=C(Nc1ccc(-c2ccccc2)cc1)N1C[C@@H]2CNC[C@]2(C(=O)O)C1

>  <TGT>
Wolbachia pipientis

>  <Percent Effect / %>
6.586

$$$$
>  <MOLECULE>
FC(F)(F)Oc1ccc(-c2noc([C@@H]3Cc4nc[nH]c4CN3)n2)cc1

>  <TGT>
Wolbachia pipientis

>  <Percent Effect / %>
-8.285

$$$$
>  <MOLECULE>
NCC1Cc2cc(-c3nccc(N4CCC(O)CC4)n3)cc(F)c2O1 (stereo unspecified)

>  <TGT>
Wolbachia pipientis

>  <Percent Effect / %>
-9.833

$$$$
>  <MOLECULE>
CN(C)C(=O)c1ccccc1NC(=O)N(C)Cc1ccccc1O

>  <TGT>
Wolbachia pipientis

>  <Percent Effect / %>
-13.22

$$$$
>  <MOLECULE>
c1ccc(C[C@H]2[C@H](N3CCOCC3)CCN2Cc2cccnc2)cc1

>  <TGT>
Wolbachia pipientis

>  <Percent Effect / %>
-10.76

$$$$

###

Percent Effect values, listed per item
- System: Wolbachia pipientis
- PROTOCOL_TEXT: Anti-Wolbachia Cell-Based Screen
- Type: functional
- Parameters: scale not given: in the data most compounds retested in dose-response had high values
- TEST_CONDITIONS: 5 µM
The campaign covered roughly 48,000 compounds. About 13,000 (27%) showed an effect of 50% or more. The list shows a part of the results.
VALUE_TYPE: Percent Effect (%)

>  <COMPOUND>
CCCSCC(=O)N1C[C@@H](NC(C)=O)[C@H](c2ccc(OC)cc2)C1

>  <VAL>
13.13

$$$$
>  <COMPOUND>
CCOCC(=O)N1C[C@@H](O)[C@H](NC(C)=O)C1

>  <VAL>
181

$$$$
>  <COMPOUND>
COC1CN(C(=O)NC2CCCC2)CCC(=O)N(C)c2ccccc21 (stereo unspecified)

>  <VAL>
116.2

$$$$
>  <COMPOUND>
O=C(NC1CCCC1)N1C[C@H]2CN(c3ccccn3)C[C@@]2(C(=O)O)C1

>  <VAL>
-9.055

$$$$
>  <COMPOUND>
COC1CCN(C(=O)Nc2ccccc2)CC(=O)N(C)c2ccccc21 (stereo unspecified)

>  <VAL>
112.2

$$$$
>  <COMPOUND>
O=C1NCCN2CCN(C(=O)Nc3ccc(-c4ccccc4)cc3)CC12 (stereo unspecified)

>  <VAL>
-8.363

$$$$
>  <COMPOUND>
O=C(O)C(F)(F)F.c1cc(CN2CCCn3cnc(COCC4CC4)c3C2)co1

>  <VAL>
3.975

$$$$
>  <COMPOUND>
O=C(CC1CC1)N1C[C@H]2CN(CC3CC3)C(=O)[C@H]2C1

>  <VAL>
-33.8

$$$$
>  <COMPOUND>
COC1CN(C(=O)C2CC2)CCC(=O)N(C)c2ccccc21 (stereo unspecified)

>  <VAL>
115

$$$$
>  <COMPOUND>
CN1C(=O)CCN(C(=O)C2CC=CC2)c2ccccc21

>  <VAL>
2.91

$$$$
>  <COMPOUND>
CC(=O)N[C@@H]1CN(C(=O)CC2CCOCC2)C[C@H]1O

>  <VAL>
144.5

$$$$

Where do the numbers come from? From ChEMBL document CHEMBL3988442.
